Biological target: T1, human GLP-2R (glucagon-like peptide-2 receptor) (human, UniProt O95838 1-553)
T1 sequence (looked up): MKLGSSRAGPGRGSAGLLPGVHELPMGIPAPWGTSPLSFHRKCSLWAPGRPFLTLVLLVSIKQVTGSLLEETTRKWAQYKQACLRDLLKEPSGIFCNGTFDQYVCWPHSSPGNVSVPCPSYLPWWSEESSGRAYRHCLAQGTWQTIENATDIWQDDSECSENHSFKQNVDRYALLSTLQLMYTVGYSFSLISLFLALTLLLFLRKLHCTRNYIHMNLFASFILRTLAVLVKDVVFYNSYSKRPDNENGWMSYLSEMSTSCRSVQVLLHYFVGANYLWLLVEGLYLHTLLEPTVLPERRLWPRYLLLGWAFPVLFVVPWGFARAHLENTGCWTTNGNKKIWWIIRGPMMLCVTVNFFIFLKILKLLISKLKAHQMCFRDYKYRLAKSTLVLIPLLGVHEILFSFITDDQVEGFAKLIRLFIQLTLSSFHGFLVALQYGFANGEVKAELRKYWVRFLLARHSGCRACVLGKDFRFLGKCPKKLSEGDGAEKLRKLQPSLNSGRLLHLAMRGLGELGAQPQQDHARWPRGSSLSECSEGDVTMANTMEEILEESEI
Assay: cell-based or functional assay
*1 amine or outer side, *2 acyl side, *3 side chain or, on linkers, in order; H or OH if unused. Where no end group is shown, it is not given here. Side-chain parts run from the residue outwards. [ ]: non-standard residue; d: D form. The star is where a group is joined. C18 diacid = O=C(O)CCCCCCCCCCCCCCCCC(=O)*; γGlu = O=C(O)[C@H](CCC(=O)[*:2])N[*:1]; AEEA = NCCOCCOCC(=O)O; Aib = CC(C)(N)C(=O)O

{"binder": "HADGTFTSDYSTILDKLAARDFINWLIQTKGKKNDWKHNITQK([AEEA-AEEA-γGlu-C18 diacid])-OH [Compound 26]", "EC50 (nM) GLP-2R": 5.6}
{"binder": "HADGTFTSDYSTILDKK([AEEA-AEEA-γGlu-C18 diacid])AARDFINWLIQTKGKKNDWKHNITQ-OH [Compound 23]", "EC50 (nM) GLP-2R": 3.5}
{"binder": "HADGTFTSDYST[Aib]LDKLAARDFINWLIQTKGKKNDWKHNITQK([AEEA-AEEA-γGlu-C18 diacid])-OH [Compound 27]", "EC50 (nM) GLP-2R": 3.2}
{"binder": "HADGTFTSDYSTILDK([AEEA-AEEA-γGlu-C18 diacid])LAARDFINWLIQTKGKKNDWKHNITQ-OH [Compound 21]", "EC50 (nM) GLP-2R": 0.6}
{"binder": "HADGTFTSDYST[Aib]LDK([AEEA-AEEA-γGlu-C18 diacid])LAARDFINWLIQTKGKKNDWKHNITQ-OH [Compound 22]", "EC50 (nM) GLP-2R": 0.6}

Source of measurements: patent US20250304644A1
